Data credit: ChEMBL document CHEMBL4627343

Biological target: Tyrosine-protein kinase Lyn (Homo sapiens, UniProt P07948)
Sequence (P07948 whole entry): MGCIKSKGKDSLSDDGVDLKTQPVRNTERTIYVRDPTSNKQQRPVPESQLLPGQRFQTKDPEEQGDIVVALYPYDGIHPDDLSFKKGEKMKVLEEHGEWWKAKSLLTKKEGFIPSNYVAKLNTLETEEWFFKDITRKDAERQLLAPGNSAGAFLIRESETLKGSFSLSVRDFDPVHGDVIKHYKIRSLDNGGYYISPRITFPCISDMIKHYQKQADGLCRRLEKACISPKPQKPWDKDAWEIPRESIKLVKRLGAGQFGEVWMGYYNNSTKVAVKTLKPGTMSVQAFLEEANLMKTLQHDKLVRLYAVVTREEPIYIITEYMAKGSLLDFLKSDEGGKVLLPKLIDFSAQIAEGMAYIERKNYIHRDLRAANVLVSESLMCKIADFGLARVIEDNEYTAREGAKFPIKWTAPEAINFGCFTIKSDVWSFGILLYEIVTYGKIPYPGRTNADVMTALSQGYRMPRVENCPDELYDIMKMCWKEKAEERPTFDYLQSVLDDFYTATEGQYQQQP
Test: […] of Lyn (unknown origin)
readout_name: EC50 (nM)

[[record]]
compound = "Cc1cccc(Oc2cnc(=O)[nH]c2)c1"
readout_name = "EC50"
unit_abbrev = "nM"
assay_result = 63


----------
Test: Tmax in ip dosed […] administered twice daily
Type: ADME, organism-based
Details: in vivo
readout_name: Tmax (min)

[[record]]
compound = "Cc1cccc(Oc2cnc(=O)[nH]c2)c1"
unit_abbrev = "min"
assay_result = 15


----------
Assay: Cmax in ip dosed […] administered twice daily
Type: ADME, organism-based
Set-up: route intraperitoneal
Conditions: in vivo
readout_name: Cmax (ng/mL)

[[record]]
molecule = "Cc1cccc(Oc2cnc(=O)[nH]c2)c1 [TOLIMIDONE]"
assay_result = 6540

